Biological target: T1, CRF2R
T1 sequence (Q13324 whole entry, species assumed, looked up): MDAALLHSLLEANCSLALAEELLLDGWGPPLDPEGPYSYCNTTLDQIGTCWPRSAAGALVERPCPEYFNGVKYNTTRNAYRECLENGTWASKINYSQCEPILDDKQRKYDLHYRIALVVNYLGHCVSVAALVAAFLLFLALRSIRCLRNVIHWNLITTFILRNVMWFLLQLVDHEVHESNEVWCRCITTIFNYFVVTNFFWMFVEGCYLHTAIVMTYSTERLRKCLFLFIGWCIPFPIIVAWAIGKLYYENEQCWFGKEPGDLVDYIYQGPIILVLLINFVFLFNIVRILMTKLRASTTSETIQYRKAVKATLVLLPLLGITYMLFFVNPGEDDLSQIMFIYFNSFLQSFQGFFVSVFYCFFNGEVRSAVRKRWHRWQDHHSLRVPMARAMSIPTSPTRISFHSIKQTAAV
Test: cell-based or functional assay
Ends that are not written are not given here.
Measured Parameter: CRF2R EC50 (nM)
Give just the numeric value; nM need not be written.

What value of CRF2R EC50 has been reported for the following binder? ZGPPISIDLPFFLLRKMIEIEKQEKEKQQAANNALLLDTI (C-terminal amide) [SEQ ID NO 318]
9.95

What value of CRF2R EC50 has been reported for the following binder? ZGPPISIDLPIILLRKVIEIEKQEKEKQQAANNRLLLDTI (C-terminal amide) [SEQ ID NO 297]
100

What value of CRF2R EC50 has been reported for the following binder? DNPSLSIDLPQYLLRTLLELARTQSQRERAEQNAIIFASV-NH2 [SEQ ID NO 339]
100

All values here come from patent US20030148958A1.
